# Test system: MOLT-4
# EXPERIMENTAL PROTOCOL: NCI tumour cell line growth inhibition, 48 h
Active and inactive are the calls of the source. No stated cut-off is given here; in the data, active = GI50 up to about 1.1 µM and inactive = higher.
Select the matching outcome among 1 (yes) = active, 0 (no) = inactive

>  <COMPOUND>
Cc1ccc(C2(C)CC/C(=N/N=C3/CCC(C)(c4ccc(C)c(C)c4)c4cc(C)c(C)cc43)c3cc(C)c(C)cc32)cc1C (stereo unspecified)

>  <CAT>
0 (no)

$$$$

**Q:** Hi, do you know how OC12c3ccccc3C1CCCCCCCCCC21OCCO1 (stereo unspecified) came out in this test?
**A:** 0 (no)

**Q:** And then `CCOc1ccc(NC(=O)C(=O)CC(=O)c2c[n+]([O-])c3cc(C)c(C)cc3[n+]2[O-])cc1` , what is it?
**A:** 0 (no)
